# Tested on: P. minus farnesol dehydrogenase; NAD(P)+-dependent farnesol dehydrogenase
# Construct: native, purified from leaves; gene not cloned
# ASSAY EXPLANATION: NADH formation at […] nm, Lineweaver-Burk
# Assay type: biochemical, Persicaria minor
# MEASUREMENT SETUP: 1.0 mM NAD+ (standard assay), 100 mM glycine-NaOH pH 9.5, 35 C; oxidation; read-out: K m value
Entries and their Km values follow.
Dear colleague, please return just the value in µM, with no unit written.

[[record]]
molecule = "OC/C=C/c1ccccc1"
target_system = "P. minus farnesol dehydrogenase; NAD(P)+-dependent farnesol dehydrogenase"
numeric_readout = 1040

[[record]]
molecule = "CC(C)=CCC/C(C)=C\\CC/C(C)=C\\CO [Cis, cis-farnesol]"
target_system = "P. minus farnesol dehydrogenase; NAD(P)+-dependent farnesol dehydrogenase"
numeric_readout = 420

[[record]]
molecule = "CC(C)=CCC/C(C)=C/CC/C(C)=C\\CO [Cis, trans-farnesol]"
target_system = "P. minus farnesol dehydrogenase; NAD(P)+-dependent farnesol dehydrogenase"
numeric_readout = 330


Consider C=C(C)[C@@H]1CC=C(CO)CC1 [(S)-Perillyl alcohol] . Its measured Km is 770

Consider CC(C)=CCC/C(C)=C/CC/C(C)=C/CO [Trans, trans-farnesol] . Its measured Km is 170

Consider C=CC(C)(O)CCC=C(C)CCC=C(C)C (stereo not shown) . Its measured Km is 1000

Consider C=C(C)C1CC=C(C)C(O)C1 (stereo not shown) . Its measured Km is 710
